experiment: self-splicing fitness, log relative to wild type (ln ratio); higher = more splicing; Tetrahymena group I intron in knt gene, E. coli kanamycin selection, DiMSum; sequences stand for … in CUCUCU…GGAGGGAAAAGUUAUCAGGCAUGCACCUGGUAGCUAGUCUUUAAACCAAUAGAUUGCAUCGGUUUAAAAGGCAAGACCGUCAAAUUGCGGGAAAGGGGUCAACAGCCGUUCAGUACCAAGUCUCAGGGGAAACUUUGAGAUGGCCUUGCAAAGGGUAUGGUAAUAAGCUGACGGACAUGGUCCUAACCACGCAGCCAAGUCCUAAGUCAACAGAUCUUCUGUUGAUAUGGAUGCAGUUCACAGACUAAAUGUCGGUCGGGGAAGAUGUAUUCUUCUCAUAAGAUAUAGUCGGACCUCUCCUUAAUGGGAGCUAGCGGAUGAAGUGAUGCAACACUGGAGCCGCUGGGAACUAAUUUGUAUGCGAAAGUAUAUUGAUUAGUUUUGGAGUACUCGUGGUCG; conditions: 30 °C;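 note: selection with 25 µg/mL kanamycin versus none on LB agar overnight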
Classification field: enter condition met for self-splicing fitness (ln) values not below -3, condition not met for values below it.

RESIDUE_CODES	GROUP
GAGAAGCAAUAUUACGUAGG	condition not met
ACUCAGCAAUAUUACGCUUC	condition met
AUAUAGCAAUAUUACGCCGG	condition not met
UAGGAGCAAUAUUACGAUGA	condition met
AAUCAGCAAUAUUACGAGAG	condition met
GGUGAGCAAUAUUACGUGGG	condition not met
GUGCAGCAAUAUUACGUCCA	condition met
GUGCAGCAAUAUUACGUUGG	condition met
UGGUAGCAAUAUUACGACAU	condition met
AACGAGCAAUAUUACGUGUC	condition met

Entry GAAUAGCAAUAUUACGCACC : is its self-splicing fitness (ln) no less than -3?
condition met

Please give the result for AAUUAGCAAUAUUACGAGAA too.
condition met

###

experiment: self-splicing fitness, log relative to wild type (ln ratio); higher = more splicing; Tetrahymena group I intron in knt gene, E. coli kanamycin selection, DiMSum; sequences stand for … in CUCUCU…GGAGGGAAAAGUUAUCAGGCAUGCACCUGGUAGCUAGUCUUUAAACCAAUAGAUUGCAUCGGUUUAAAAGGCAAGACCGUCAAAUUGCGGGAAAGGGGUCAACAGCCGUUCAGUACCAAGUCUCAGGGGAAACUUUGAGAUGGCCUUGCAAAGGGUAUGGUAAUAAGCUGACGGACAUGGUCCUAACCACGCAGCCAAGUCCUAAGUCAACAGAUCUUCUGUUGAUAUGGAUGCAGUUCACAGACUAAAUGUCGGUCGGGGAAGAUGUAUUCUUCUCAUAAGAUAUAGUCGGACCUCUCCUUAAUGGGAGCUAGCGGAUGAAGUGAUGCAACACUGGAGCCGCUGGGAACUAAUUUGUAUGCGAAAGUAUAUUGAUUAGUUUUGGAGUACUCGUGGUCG; conditions: 30 °C
Classification field: enter criterion met for self-splicing fitness (ln) values not below -3, criterion not met for values below it.

RESIDUE_CODES	GROUP
UGAUAGCAAUAUUACGGAGG	criterion met
UUACAGCAAUAUUACGUAAC	criterion not met
CCAGAGCAAUAUUACGGUCU	criterion not met
UGGAAGCAAUAUUACGGGCU	criterion not met
UUGAAGCAAUAUUACGUUAG	criterion met
AUCGAGCAAUAUUACGGCUU	criterion not met
ACUCAGCAAUAUUACGUUAU	criterion met
UCUAAGCAAUAUUACGCGGG	criterion not met

As a next step, examine the sequence that follows.
Entry AGGCAGCAAUAUUACGAUUG : is its self-splicing fitness (ln) no less than -3?
criterion not met

###

test: self-splicing fitness, log relative to wild type (ln ratio); higher = more splicing; Tetrahymena group I intron in knt gene, E. coli kanamycin selection, DiMSum; sequences stand for … in CUCUCU…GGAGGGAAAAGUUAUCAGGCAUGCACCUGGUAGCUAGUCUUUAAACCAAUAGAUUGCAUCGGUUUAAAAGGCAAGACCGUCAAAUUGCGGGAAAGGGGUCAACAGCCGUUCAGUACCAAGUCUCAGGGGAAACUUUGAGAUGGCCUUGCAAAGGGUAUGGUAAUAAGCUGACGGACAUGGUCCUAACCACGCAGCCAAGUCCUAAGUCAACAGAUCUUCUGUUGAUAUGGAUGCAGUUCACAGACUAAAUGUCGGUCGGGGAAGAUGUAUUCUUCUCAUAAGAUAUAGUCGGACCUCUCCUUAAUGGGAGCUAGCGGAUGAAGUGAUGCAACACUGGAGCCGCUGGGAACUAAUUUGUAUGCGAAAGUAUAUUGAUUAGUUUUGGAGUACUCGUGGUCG; conditions: 30 °C
EXPERIMENTAL_ENDPOINT: self-splicing fitness (ln)

Examples with answers:
RESIDUE_CODES	self-splicing fitness (ln)
CUCUAGCAAUAUUACGCGUG	-3.84
AUGGAGCAAUAUUACGGGAU	-3.03
GACAAGCAAUAUUACGUGGA	-3.18
UUGAAGCAAUAUUACGAUAU	-1.97
GAAUAGCAAUAUUACGAACC	0.0666
GUAGAGCAAUAUUACGCGUC	-0.836

Suppose we examine the sequence UGCCAGCAAUAUUACGAUAU ; what self-splicing fitness (ln) value has been reported?
-4.12

Please give the result for ACAAAGCAAUAUUACGAUCC too.
-1.55

Please give the result for UGCGAGCAAUAUUACGACCG too.
-1.72

Please give the result for UAUCAGCAAUAUUACGGUAG too.
-1.26

Please give the result for ACCAAGCAAUAUUACGGAAC too.
-3.63

Please give the result for GUCGAGCAAUAUUACGCCUC too.
-1.51

Please give the result for ACGCAGCAAUAUUACGAGAG too.
-3.3

Please give the result for AACCAGCAAUAUUACGCUGC too.
-2.31

Please give the result for AAUCAGCAAUAUUACGCCCG too.
-0.416

Please give the result for CCGAAGCAAUAUUACGUUAC too.
-3.03

Please give the result for AACUAGCAAUAUUACGGAUG too.
-2.26

Please give the result for ACCGAGCAAUAUUACGACUU too.
-1.12

###

experiment: self-splicing fitness, log relative to wild type (ln ratio); higher = more splicing; Tetrahymena group I intron in knt gene, E. coli kanamycin selection, DiMSum; sequences stand for … in CUCUCU…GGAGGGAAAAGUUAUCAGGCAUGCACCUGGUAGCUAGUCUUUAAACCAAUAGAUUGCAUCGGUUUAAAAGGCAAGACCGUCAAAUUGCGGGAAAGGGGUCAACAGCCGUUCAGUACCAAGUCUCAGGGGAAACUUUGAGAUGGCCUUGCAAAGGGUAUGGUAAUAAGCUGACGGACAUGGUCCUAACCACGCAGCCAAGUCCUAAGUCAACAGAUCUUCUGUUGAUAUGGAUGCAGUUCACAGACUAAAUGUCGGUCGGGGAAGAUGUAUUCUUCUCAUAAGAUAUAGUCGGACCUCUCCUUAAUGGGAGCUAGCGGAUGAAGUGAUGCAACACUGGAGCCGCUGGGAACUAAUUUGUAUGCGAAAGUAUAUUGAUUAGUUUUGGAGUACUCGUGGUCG; details: 37 °C
EXPERIMENTAL_ENDPOINT: self-splicing fitness (ln)

Examples with answers:
RESIDUE_CODES	RESULT
GGAGAGCAAUAUUACGCAAU	-2.55
CUGAAGCAAUAUUACGCGGA	-1.7
GGGCAGCAAUAUUACGAGUA	-2.53
AUUUAGCAAUAUUACGCUAG	-0.937
AACCAGCAAUAUUACGCAGU	-1.35

Suppose we examine the sequence ACGCAGCAAUAUUACGGAUC ; what self-splicing fitness (ln) value has been reported?
-0.813

Please give the result for CGAUAGCAAUAUUACGAUAG too.
-0.275

Please give the result for UUACAGCAAUAUUACGUUAA too.
-0.847

Please give the result for AUAGAGCAAUAUUACGACUG too.
-0.786

Please give the result for GGGAAGCAAUAUUACGGAGU too.
-2.05

Please give the result for CAACAGCAAUAUUACGAAAC too.
-2.01

Please give the result for CCCAAGCAAUAUUACGUUUG too.
-2.82

###

test: self-splicing fitness, log relative to wild type (ln ratio); higher = more splicing; Tetrahymena group I intron in knt gene, E. coli kanamycin selection, DiMSum; sequences stand for … in CUCUCU…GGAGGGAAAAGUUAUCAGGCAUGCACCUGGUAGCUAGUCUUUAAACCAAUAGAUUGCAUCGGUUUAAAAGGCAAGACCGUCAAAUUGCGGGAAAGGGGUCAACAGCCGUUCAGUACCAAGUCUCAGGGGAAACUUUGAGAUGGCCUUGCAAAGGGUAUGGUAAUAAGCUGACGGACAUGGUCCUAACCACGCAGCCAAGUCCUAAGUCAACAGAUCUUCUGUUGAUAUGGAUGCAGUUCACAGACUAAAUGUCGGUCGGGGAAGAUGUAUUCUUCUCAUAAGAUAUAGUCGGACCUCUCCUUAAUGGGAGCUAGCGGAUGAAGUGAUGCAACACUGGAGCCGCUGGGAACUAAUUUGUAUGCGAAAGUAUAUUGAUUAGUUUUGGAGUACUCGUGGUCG; details: 30 °C
// class assignment uses self-splicing fitness (ln) with these ranges: low group (below -3), middle group (-3 to below -2), high group (-2 or more)

RESIDUE_CODES	GROUP
GAAUAGCAAUAUUACGAGAA	middle group
GUAUAGCAAUAUUACGAUGG	low group
AUACAGCAAUAUUACGCAUG	high group
GGCCAGCAAUAUUACGUUCG	middle group

State the class of the sequence shown: AAUGAGCAAUAUUACGGGGG
low group

Please give the result for CCGUAGCAAUAUUACGAGUG too.
high group

Please give the result for GGCAAGCAAUAUUACGAGAU too.
middle group

Please give the result for GCGAAGCAAUAUUACGGUCC too.
low group
